Known Percentage inhibition of ligand binding, Adrenergic α2B of a selection of molecules
molecular target: human recombinant adrenergic α2B receptor (Homo sapiens, UniProt P18089); construct: expressed in transfected cells; host or cells: CHO-K1; experiment: Radioligand binding, adrenergic α2B receptor ([3H]Rauwolscine); conditions: 0.1 μM compound, CHO-K1 cells
Sequence (P18089 whole entry): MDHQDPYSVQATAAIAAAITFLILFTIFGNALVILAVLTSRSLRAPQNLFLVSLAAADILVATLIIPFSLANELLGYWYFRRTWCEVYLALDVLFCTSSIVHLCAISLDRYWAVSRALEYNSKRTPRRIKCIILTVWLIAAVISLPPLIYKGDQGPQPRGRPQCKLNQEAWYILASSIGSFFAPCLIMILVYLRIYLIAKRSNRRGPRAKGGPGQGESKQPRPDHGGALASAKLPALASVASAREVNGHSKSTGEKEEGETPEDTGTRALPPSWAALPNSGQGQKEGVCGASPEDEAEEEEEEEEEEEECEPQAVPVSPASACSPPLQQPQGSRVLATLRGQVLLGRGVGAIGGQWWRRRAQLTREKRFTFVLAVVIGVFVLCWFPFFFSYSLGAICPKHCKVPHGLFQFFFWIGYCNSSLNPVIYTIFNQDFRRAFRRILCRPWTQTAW
Give the value in % but do not write % after it.

# SMILES_CODE, READOUT_VALUE
data = [
    ("Cc1ccc2c(c1)c1c(n2-c2cscc2-c2ccc(S(C)(=O)=O)cc2)CCN(C)C1", 100),
    ("Cc1ccc2c(c1)c1c(n2-c2ccccc2-c2cccn2C)CCN(C)C1", 109),
    ("Cc1ccc2c(c1)c1c(n2-c2ccccc2-c2ccc3c(ccn3C)c2)CCN(C)C1", 102),
    ("COc1ccc(-c2cscc2-n2c3c(c4cc(C)ccc42)CN(C)CC3)cc1", 104),
]

Continue with the molecule presented below.
Query: Report Percentage inhibition of ligand binding, Adrenergic α2B for "Cc1ccc2c(c1)c1c(n2-c2cscc2-c2ccc3cnccc3c2)CCN(C)C1"
Response: 93
